Target: T1, fHbp m000019 (Neisseria meningitidis, fHbp v1.1 …, point mutant)
T1 construct: also called Round 1 best mutant
T1 chain: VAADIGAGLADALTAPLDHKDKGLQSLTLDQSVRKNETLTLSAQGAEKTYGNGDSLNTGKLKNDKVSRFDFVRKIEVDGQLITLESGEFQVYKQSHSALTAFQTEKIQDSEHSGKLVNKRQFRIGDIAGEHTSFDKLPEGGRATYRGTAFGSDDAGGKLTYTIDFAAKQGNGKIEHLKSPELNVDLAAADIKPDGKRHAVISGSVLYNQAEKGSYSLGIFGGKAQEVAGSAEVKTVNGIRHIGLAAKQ
Experiment: BLI
Settings: both partners purified
Would you mind telling me the reported pKd of each entry?
Give bare numbers, as −log10 of the molar value.

Worked cases, answers included:
BINDER: mouse mAb 12C1 (antibody, V domains shown, also called mouse 12C1 mAb; source: Expi293, transient transfection, purified (MabSelect SuRe, SEC)) VH: QVQLQESGPELVKPGASVKISCKASGYSFSDYNMSWVKQSNGKSLEWIGIIDPKYGTINYNQKFKGKATLTVDQASSTAYMQLNSLTSEDSAVYYCVRDYYGSSYFDYWGQGTTLTVSS VL: DIVLTQSPSSIYASLGERVTLTCKASQDIHNYLNWFQQKPGKSPKTLIYRANRLVDGVPSRFSGGGSGQDYSLTISSLEFEDIGIYYCLQYDEFPPTFGGGTRLEIK
pKd: 10.43
--
BINDER: mouse mAb JAR5 (antibody, V domains shown, also called mouse JAR5 mAb; source: Expi293, transient transfection, purified (MabSelect SuRe, SEC)) VH: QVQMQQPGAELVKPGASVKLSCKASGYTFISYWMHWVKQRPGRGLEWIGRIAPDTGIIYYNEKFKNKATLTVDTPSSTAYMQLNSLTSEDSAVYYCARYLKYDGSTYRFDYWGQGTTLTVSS VL: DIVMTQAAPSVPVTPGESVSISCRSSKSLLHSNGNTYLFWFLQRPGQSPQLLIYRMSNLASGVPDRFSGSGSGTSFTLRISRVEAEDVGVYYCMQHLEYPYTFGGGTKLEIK
pKd: 9.60
--
BINDER: human mAb 1E6 (antibody, V domains shown, source: Expi293, transient transfection, purified (MabSelect SuRe, SEC)) VH: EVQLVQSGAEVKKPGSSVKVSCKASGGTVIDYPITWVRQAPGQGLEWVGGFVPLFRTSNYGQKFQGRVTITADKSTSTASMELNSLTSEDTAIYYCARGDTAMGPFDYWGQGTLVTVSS VL: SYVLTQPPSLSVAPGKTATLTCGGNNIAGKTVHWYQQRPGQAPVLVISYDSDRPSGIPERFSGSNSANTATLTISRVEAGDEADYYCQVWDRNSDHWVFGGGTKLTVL
pKd: 9.10

We now examine a further binder.
Query :: Please look up its pKd: human mAb 4B3 (antibody, V domains shown, source: Expi293, transient transfection, purified (MabSelect SuRe, SEC)) VH: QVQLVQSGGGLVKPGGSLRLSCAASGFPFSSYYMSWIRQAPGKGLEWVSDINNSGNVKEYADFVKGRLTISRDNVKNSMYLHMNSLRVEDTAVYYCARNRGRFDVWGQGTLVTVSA VL: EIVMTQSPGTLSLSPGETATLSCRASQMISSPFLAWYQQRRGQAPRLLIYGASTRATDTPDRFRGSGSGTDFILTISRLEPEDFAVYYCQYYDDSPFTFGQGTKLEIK
Result :: 8.62
